Just for reference, PubChem BioAssay (NCI) is where these values come from.

# Tested on: MALME-3M melanoma
# assay explanation: NCI tumour cell line growth inhibition, 48 h
measured parameter: log10(TGI) (log10 of the value in µM)
Values are log10 of TGI in µM.

Illustrative cases are given below, each with its answer.
CN1CCC23c4c5ccc(Oc6nnnn6-c6ccccc6)c4OC2c2[nH]c4ccccc4c2CC3(O)C1C5 (stereo not given); 0.49
COC(=O)C1=CC2C(=O)c3ccccc3C1(c1ccccc1)N2C1CCCCC1 (stereo not given); 1.86
C[N+](C)(C)CC1CCCC(C[N+](C)(C)C)C1=O (stereo not given); -0.31
CC(=O)OC1C=C(C=O)C(O)(C=O)C2(C)CCCC(C)(C)C12 (stereo not given); 0.37
O=C(Nc1ccc(Cl)cc1)c1cc(S(=O)(=O)Nc2n[nH]c(Nc3ccc4ccccc4c3)n2)c(SSc2cc(Cl)c(C(=O)Nc3ccc(Cl)cc3)cc2S(=O)(=O)Nc2n[nH]c(Nc3ccc4ccccc4c3)n2)cc1Cl; 1.63

With those in mind, consider the next compound.
[in] Fill in the blank: the reported log10(TGI) of `O=c1[nH]c2cccc([N+](=O)[O-])c2c(=O)n1-c1ccc(Cl)cc1` is ____.
[out] 1.44
